System: MDA-MB-468 cancer cell line
Experiment: Cell growth assay (WST-8)
Assay type: cell-based
Conditions: Homo sapiens, MDA-MB-468, 96 h; Table 2 prints no column heads; columns and unit as in Table 1; WST-8, 4 days; read-out: Inhibition of cell growth IC50, MDA-MB-468 cancer cell line (pro-drugs, Table 2)
parameter measured: IC50

INSERT INTO measurements (molecule, result) VALUES
  ('CC(C)(C)C(=O)OCOP(=O)(OCOC(=O)C(C)(C)C)C(F)(F)c1ccc(/C=C/C(=O)N[C@H]2CCCCC3CC[C@@H](C(=O)NCCc4cn[nH]c4)N3C2=O)cc1 (some centres unmarked)', '< 30 µM'),
  ('CC(C)(C)C(=O)OCOP(=O)(Cc1ccc(C[C@H](NC(=O)OCC2c3ccccc3-c3ccccc32)C(=O)N[C@H]2CCCCC3CC[C@@H](C(=O)N[C@@H](CCC(N)=O)C(=O)NCc4ccccc4)N3C2=O)cc1)OCOC(=O)C(C)(C)C (some centres unmarked)', '< 10 µM'),
  ('CC(C)(C)C(=O)OCOP(=O)(OCOC(=O)C(C)(C)C)C(F)(F)c1ccc2[nH]c(C(=O)N[C@H]3CCCCC4CC[C@@H](C(=O)NCCc5cn[nH]c5)N4C3=O)cc2c1 (some centres unmarked)', '< 50 µM'),
  ('CCCCCCCCCCCCCCCCOP(=O)(OCCCCCCCCCCCCCCCC)C(F)(F)c1ccc2cc(C(=O)N[C@H]3CCCC[C@H]4CC[C@@H](C(=O)N(CC)CC)N4C3=O)[nH]c2c1', '> 100 µM'),
  ('CCCCCCCCCCCCCCCCOP(=O)(O)C(F)(F)c1ccc2cc(C(=O)N[C@H]3CCCC[C@H]4CC[C@@H](C(=O)NCCc5cn[nH]c5)N4C3=O)[nH]c2c1', '> 100 µM');
